Cited source: patent US12606552B2

assayTarget: AR (Homo sapiens, UniProt P10275, T878A)
Sequence (P10275 1-920 T878A): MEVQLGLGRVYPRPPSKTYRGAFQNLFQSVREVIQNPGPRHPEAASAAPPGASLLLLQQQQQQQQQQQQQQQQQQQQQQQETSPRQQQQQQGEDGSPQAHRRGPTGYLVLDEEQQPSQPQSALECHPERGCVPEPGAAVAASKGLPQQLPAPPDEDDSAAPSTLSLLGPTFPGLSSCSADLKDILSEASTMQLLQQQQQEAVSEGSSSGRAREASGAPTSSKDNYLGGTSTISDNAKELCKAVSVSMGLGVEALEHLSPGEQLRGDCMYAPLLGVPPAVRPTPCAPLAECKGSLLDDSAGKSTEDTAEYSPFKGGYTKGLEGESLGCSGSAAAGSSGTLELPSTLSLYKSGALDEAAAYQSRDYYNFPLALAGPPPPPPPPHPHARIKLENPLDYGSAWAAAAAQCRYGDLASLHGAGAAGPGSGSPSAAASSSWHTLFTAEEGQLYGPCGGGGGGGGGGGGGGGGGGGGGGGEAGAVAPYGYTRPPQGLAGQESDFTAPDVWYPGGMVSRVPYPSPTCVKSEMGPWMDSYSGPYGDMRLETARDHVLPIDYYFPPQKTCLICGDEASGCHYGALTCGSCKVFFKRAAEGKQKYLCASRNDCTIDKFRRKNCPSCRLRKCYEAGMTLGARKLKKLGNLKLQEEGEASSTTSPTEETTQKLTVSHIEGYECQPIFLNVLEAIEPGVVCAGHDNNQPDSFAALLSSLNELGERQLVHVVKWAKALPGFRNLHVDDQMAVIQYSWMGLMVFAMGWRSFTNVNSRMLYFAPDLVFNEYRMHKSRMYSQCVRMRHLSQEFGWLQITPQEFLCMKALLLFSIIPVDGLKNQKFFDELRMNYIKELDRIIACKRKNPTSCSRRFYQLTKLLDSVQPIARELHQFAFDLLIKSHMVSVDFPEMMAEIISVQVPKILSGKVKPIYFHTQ
protocolDescription: Effects of compounds on AR expression in LNCaP cells (ELISA, DC50)
Format: cell-based
Set-up: Measurement of the Effects of Drugs on the Expression of AR in Cells by ELISA Method; endogenous in cells; host or cells: LNCaP
details: 24 hours of drug treatment, AR by ELISA
Please respond with reported DC50 for every item in the list.
Give the value, in units of nM, as a plain number.

Form: Entry = "Cc1ncsc1-c1c[nH]c([C@@H]2C[C@@H](O)CN2C(=O)[C@@H](NC(=O)COCCCCOc2ccc(-c3ncc(N4C(=S)N(c5ccc(C#N)c(C(F)(F)F)c5F)C(=O)C4(C)C)cc3F)cc2F)C(C)(C)C)n1" | System = AR (Homo sapiens, UniProt P10275, T878A) | DC50 = ____
151

Form: Entry = "Cc1ncsc1-c1ccc(CNC(=O)[C@@H]2C[C@@H](O)CN2C(=O)[C@@H](NC(=O)CCN2CCC(Oc3ccc(-c4ncc(N5C(=S)N(c6ccc(C#N)c(C(F)(F)F)c6F)C(=O)C5(C)C)cc4F)cc3F)CC2)C(C)(C)C)cc1" | System = AR (Homo sapiens, UniProt P10275, T878A) | DC50 = ____
241

Form: Entry = "CC(C)(C)[C@H](NC(=O)COCCCCOc1ccc(-c2ncc(N3C(=S)N(c4ccc(C#N)c(C(F)(F)F)c4F)C(=O)C3(C)C)cc2F)cc1F)C(=O)N1C[C@H](O)C[C@H]1C(=O)NCc1ccccc1" | System = AR (Homo sapiens, UniProt P10275, T878A) | DC50 = ____
216

Form: Entry = CC1(C)C(=O)N(c2ccc(C#N)c(C(F)(F)F)c2F)C(=S)N1c1ccc(-c2ccc(OCCNC(=O)COc3cccc4c3C(=O)N(C3CCC(=O)NC3=O)C4=O)cc2)nc1 (stereo not shown) | System = AR (Homo sapiens, UniProt P10275, T878A) | DC50 = ____
721
